// % activity lookup, one value per entry
- EXPERIMENTAL SYSTEM: Fer (h) (Homo sapiens, UniProt P16591)
- Sequence (P16591 whole entry): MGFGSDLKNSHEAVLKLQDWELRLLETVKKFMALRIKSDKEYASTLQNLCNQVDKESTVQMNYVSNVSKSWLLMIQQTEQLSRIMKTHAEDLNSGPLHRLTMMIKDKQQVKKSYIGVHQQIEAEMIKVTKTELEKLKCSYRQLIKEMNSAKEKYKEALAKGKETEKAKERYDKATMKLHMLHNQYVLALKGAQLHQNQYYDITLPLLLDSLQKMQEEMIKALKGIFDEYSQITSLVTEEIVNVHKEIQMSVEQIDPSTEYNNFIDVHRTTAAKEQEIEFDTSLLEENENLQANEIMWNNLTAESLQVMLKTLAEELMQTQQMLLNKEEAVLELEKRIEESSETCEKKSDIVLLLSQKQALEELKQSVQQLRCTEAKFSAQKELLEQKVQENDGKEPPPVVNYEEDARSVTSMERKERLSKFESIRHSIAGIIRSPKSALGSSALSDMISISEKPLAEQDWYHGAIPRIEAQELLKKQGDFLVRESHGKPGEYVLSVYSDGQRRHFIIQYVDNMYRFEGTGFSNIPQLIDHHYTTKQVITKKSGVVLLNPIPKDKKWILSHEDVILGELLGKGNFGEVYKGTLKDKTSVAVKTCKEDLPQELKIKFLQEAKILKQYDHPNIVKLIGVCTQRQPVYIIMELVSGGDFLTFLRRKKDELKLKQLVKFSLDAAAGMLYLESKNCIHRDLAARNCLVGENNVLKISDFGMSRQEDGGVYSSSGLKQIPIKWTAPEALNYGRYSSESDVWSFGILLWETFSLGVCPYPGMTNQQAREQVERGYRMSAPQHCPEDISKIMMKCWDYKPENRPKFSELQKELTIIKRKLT
- ASSAY OVERVIEW: Kinase Profiling Assay
- Assay type: biochemical
- CONDITION PARAMETERS: 100 μM
All answers are understood in %, so give the number only.

Here are 3 sequences together with their reported answers.
- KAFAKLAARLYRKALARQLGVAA [MMI-0400]: 108
- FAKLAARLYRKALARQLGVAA [MMI-0300]: 130
- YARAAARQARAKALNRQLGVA (Mammalian) [MMI-0200]: 101

stdin: For the sequence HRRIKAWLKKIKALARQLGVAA (Mammalian) [MMI-0500] , what % activity is on record?
stdout: 196
